What Ratio pKi was measured for each of the following?
- Species: Homo sapiens
- assay_summary: Selectivity ratio of pKi for displacement of 2-[125I]iodomelatonin from human melatonin MT1 receptor stably expressed in human HEK293 cell membrane to pKi for displacement of 2-[125I]iodomelatonin from human melatonin MT2 receptor stably expressed in human HEK293 cell membrane
Answers are plain numbers.

Example cases with answers are listed next.
compound: COc1ccc2[nH]c(C(O)c3ccc(F)cc3)c(CCNC(C)=O)c2c1 (stereo not given)
reported_metric: Ratio pKi
test_value: 0.98

compound: COC(=O)NCCc1c(C(O)c2ccc(OC)cc2)[nH]c2ccc(OC)cc12 (stereo not given)
reported_metric: Ratio pKi
test_value: 0.94

compound: COC(=O)NCCc1c(C(O)c2ccc(Cl)cc2)[nH]c2ccccc12 (stereo not given)
reported_metric: Ratio pKi
test_value: 0.87

Quick one: give me Ratio pKi for each item below, same order please.
1. CN1CC(=O)NC(CCc2c(C(O)c3ccccc3N)[nH]c3ccccc23)C1=O (stereo not given)
2. COc1ccc(C(O)c2[nH]c3ccc(OC)cc3c2CCNC(C)=O)c(F)c1 (stereo not given)
3. COc1ccc2[nH]c(C(O)c3ccccc3)c(CCNC(C)=O)c2c1 (stereo not given)

Result:
1. 0.92
2. 0.79
3. 0.98

// input: 2 compounds below; output: Ratio pKi for each
1. COC(=O)NCCc1c(C(O)c2ccc(F)cc2)[nH]c2ccc(OC)cc12 (stereo not given)
2. COC(=O)NCCc1c(C(O)c2ccc(OC)cc2F)[nH]c2ccc(OC)cc12 (stereo not given)

Result:
1. 0.94
2. 1.07

Go through the list and state Ratio pKi for each entry.
1. COc1ccc(C(O)c2[nH]c3ccc(OC)cc3c2CCNC(C)=O)cc1 (stereo not given)
2. O=C(NCCc1c(C(O)c2ccccc2)[nH]c2ccccc12)C(F)(F)F (stereo not given)

Result:
[0.8, 0.94]

* * *

- assay_target: Melatonin receptor type 1A (Homo sapiens, UniProt P48039)
- Sequence (P48039 whole entry): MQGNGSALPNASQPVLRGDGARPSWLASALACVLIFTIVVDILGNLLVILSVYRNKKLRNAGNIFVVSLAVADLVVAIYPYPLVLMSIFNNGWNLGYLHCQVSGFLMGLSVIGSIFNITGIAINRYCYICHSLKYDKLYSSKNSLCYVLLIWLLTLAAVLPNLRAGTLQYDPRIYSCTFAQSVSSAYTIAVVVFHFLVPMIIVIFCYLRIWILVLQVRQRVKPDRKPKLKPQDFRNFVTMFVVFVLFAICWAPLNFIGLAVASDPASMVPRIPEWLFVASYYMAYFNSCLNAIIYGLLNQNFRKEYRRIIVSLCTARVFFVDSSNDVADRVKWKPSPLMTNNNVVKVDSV
- assay_summary: Partial agonist activity at human melatonin MT1 receptor expressed in HEK293 cells co-transfected with Galphai9 chimera construct assessed as stimulation of inositol phosphate production by HTRF based assay
- Assay type: functional, cell-based
reported_metric: pEC50
Numbers only, as −log10 of the molar value.

compound: COc1ccc2[nH]c(C(O)c3ccccc3)c(CCNC(C)=O)c2c1 (stereo not given)
pEC50: 6.28

Q: Give reported pEC50 value for COC(=O)NCCc1c(C(O)c2ccc(F)cc2)[nH]c2ccc(OC)cc12 (stereo not given)
Result: 5.50

* * *

- assay_target: Melatonin receptor type 1A (Homo sapiens, UniProt P48039)
- assay_summary: Displacement of 2-[125I]iodomelatonin from human melatonin MT1 receptor stably expressed in HEK293 cell membrane assessed as inhibition constant incubated for 120 mins by rapid filtration based competition binding assay
- Assay type: cell membranes
reported_metric: Ki (µM)
Numbers only, in µM.

Recorded Ki, per entry:
molecule: O=C(NCCc1c(C(O)c2ccccc2)[nH]c2ccccc12)C(F)(F)F (stereo not given)
measurement_units: µM
test_value: 2.51
//
molecule: COC(=O)NCCc1c(C(O)c2ccccc2)[nH]c2ccccc12 (stereo not given)
measurement_units: µM
test_value: 22.9
//
molecule: COC(=O)NCCc1c(C(O)c2ccc(OC)cc2F)[nH]c2ccc(OC)cc12 (stereo not given)
measurement_units: µM
test_value: 2.04
//
molecule: COC(=O)NCCc1c(C(O)c2ccc(Cl)cc2)[nH]c2ccccc12 (stereo not given)
measurement_units: µM
test_value: 25.1
//
molecule: COC(=O)NCCc1c(C(O)c2ccc(OC)cc2)[nH]c2ccc(OC)cc12 (stereo not given)
measurement_units: µM
test_value: 110
//
molecule: COC(=O)NCCc1c(C(O)c2ccccc2)[nH]c2ccc(OC)cc12 (stereo not given)
measurement_units: µM
test_value: 0.891

For every listed record, write down its Ki.
1. CC(=O)NCCc1c(C(O)c2ccccc2)[nH]c2ccccc12 (stereo not given)
2. COC(=O)NCCc1c(C(O)c2ccc(F)cc2)[nH]c2ccc(OC)cc12 (stereo not given)
3. COc1ccc2[nH]c(C(O)c3ccccc3)c(CCNC(C)=O)c2c1 (stereo not given)
4. CC(=O)NCCc1c(C(O)c2ccc(Cl)cc2)[nH]c2ccccc12 (stereo not given)
5. COc1ccc(C(O)c2[nH]c3ccc(OC)cc3c2CCNC(C)=O)cc1 (stereo not given)
6. COc1ccc2[nH]c(C(O)c3ccc(Cl)cc3)c(CCNC(C)=O)c2c1 (stereo not given)

Result:
[2.75, 1.82, 1.26, 4.47, 7.59, 0.513]
